All figures here come from the supplement of paper PMC10567573.

Measured protein stability index, listed per entry.
B1: PBXIP1 (parent)
chain: EKQKQPRWREGTKDSHDPLPSWAE

- Variants of: B1
- assay-remarks: protein stability index of a GFP-peptide fusion (GPS, HEK-293T) (PSI 1-6); higher = more stable;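 further: lentivirally expressed fusions sorted by FACS into six bins by GFP to DsRed ratio, PSI derived from sequencing read proportions per bin multiplied by bin number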
- reported-conditions: c terminus: a fixed tail appended
Give the value as a plain number.

Examples with answers:
In [3]: df
Out[3]:
   mutation_notation  observed_result
0               S21L                2
1               K13H             2.96
2               E10L             1.96

Consider the variant shown here: "S15D" What is its recorded protein stability index?
1.84

Next variant: "S21F"
2.54

Next variant: "R7A"
1.59
